# System: MS2 coat protein
# METHOD_SUMMARY: apparent KD of MS2 coat protein, switch ON state; designed switch direction (-1 OFF switch, 1 ON switch): -1; higher = weaker reporter binding
# CONDITION_INFO: FMN input: 0 or 200 uM; Eterna round: R93 (includes R88 designs)
Could you label it 1 if measured apparent KD of MS2 coat protein is 0.03 µM or higher, and 0 otherwise?

AGUUGGCGAGGAUAUACAUGAGGAUCACCCAUGUGAGAGAAAAAAGUGAGAAAGAAAAGUAGAAGGCGCUGACA [Norbert Elias]
1
CAGUACUGAGGAUAUACAUGAGGAUCACCCAUGUAUCCAAGCUAGGAAACUAGCAAAAGUAGAAGGCAGUACUG [Ex3: 820]
0
AAGGGACAUGAGGAUCACCCAUGUCAGGAUAUGAUGCGAAUAAAGAAAGAAGAAAGCAUCAGAAGGGACAAAAA [58%, Disencluded 3, 3]
1
GAUAAACAUGAGGAUCACCCAUGUAAGGAUAUGCGCUAACUAACUAACUAACUAACUAGCAGAAGGUACACUAC [The End]
0
UAGAACCUAGGAUAUACUUGGGUCACUAAUUUACUGAUAUAACAUGAGGAUCACCCAUGUAGAAGGAGGAGUAA [JR_Exc002_Sub203]
1
AAAAAACAUGAGGAUCACCCAUGUAAGGAUAUGUAAAAUAAAAGAAAAAUAAAGAAAAGCAGAAGGUACAAGAA [JL wbt mod 18]
1
AUAGUACAUGAGGAUCACCCAUGUCAGGAUAUUCGAAAUGAAAAAAAAAAAAAAUGAAGGAGAAGGGACUAUAA [EX1 Malc#11]
1

---

# Tested on: K4 kissing-loop RNA reporter;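 further: bound reporter read as fluorescence of individual clusters on recovered sequencing chips by microscopy, with normalized cluster intensities fitted with a binding model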
# METHOD_SUMMARY: apparent KD of K4 kissing-loop reporter; higher = weaker reporter binding
# CONDITION_INFO: Eterna round: R107; input ligand: FMN 200 uM
READOUT_NAME: apparent KD of K4 kissing-loop reporter

CCGAGCUACAGCGAUACCAGUGUGGAGUGAUGUUCCCUGGUCCGGGCUGUUGUUCCCUUGCGCCCUUGGCAGCGCAGAAGCAGCU [Exclusion Theophylline B GF 14]
303 nM
ACCCAAGCCCAUCGCGCAGUGAUGUUGUCGCGAGGACCGGUACGGCCGCCACUCGAUAGCAGUGGCAACGUCAUCAUAAUCGAUU [theeternabot_exclusion_KL_Trp_A_50]
340 nM
GGAUUGCCAGUGAUGUUGGCAUAAACUGAAGGAGCGCGUGAAAACGCAGGUAGGUCGCAGAACCUUGCCAACUAUUUUAUUUACC [Ex Arginine A K4 23]
89.3 nM

---

# System: MS2 coat protein
# METHOD_SUMMARY: apparent KD of MS2 coat protein; higher = weaker reporter binding
# CONDITION_INFO: Eterna round: R107; input ligand: tryptophan 2.4 mM
Listed sequences paired with reported apparent KD of MS2 coat protein
READOUT_NAME: apparent KD of MS2 coat protein

ACUCGAGGUGGAAGGAGCGGGAGACAUGAGCAUCACAUGAGGAUCACCCAUGUAGGAUCAUCCCAGGUAGGUCGCCAUGUCGAAA [avtamullin]
165 nM
AAUAUAUAUCACGAACUGUGGUGUAUGUUGCGAGGACCGGUACGGCCGCCACUCGGCCGGUGGUACAUGAGGAUCACCCAUGUUG [XTryp A #9]
28.2 nM
AGUCUUAUAGGAAGGAGCGCAAUCAUAACAUGAGGAUCACCCAUGUCGAGGUGAGGGUCAUUGCAGGUAGGUCGCCUAACUAAGA [Same State - Arginine B (Freestyle 8)]
96.5 nM
GGUUACUCUACGGCCGCCACUGUAAUGUAAAGAUACCUGUACAUGACAUGAGGAUCACCCAUGUGCAGGACCGGGUAGUGUAACC [Tryptophan B 19]
19.8 nM
GGAUAUGGUGAAAGAGAGAAGAGAGAUGAUACCAGUAAGAGAAGAUGCCCUUGGCAGCAUAGAGACAUGAGGAUCACCCAUGUAA [solution]
15.6 nM
AGCGAUAUGCAUGAUACCAGCUACAUGAGGAUCACCCAUGUACGUCAGUAAUGACUGUGUAGCCCUUGGCAGCAUAGAGCAUGUA [Exclusion - Theophylline B (Freestyle 13)]
22.7 nM
